System: SF-295
PROTOCOL: NCI tumour cell line growth inhibition, 48 h
Calls of active or inactive are those of the source. Cut-off read from the data, not from the text of the source: active = GI50 up to about 1.1 µM and inactive = higher.
Respond only with the outcome that fits, drawn from active, inactive

[[record]]
compound = "CC1OC23CCCCC2C(C#N)(C#N)C1(C#N)C(=N)O3 (stereo unspecified)"
tgt = "SF-295"
answer_label = "inactive"


// param item: COc1cc([C@@H]2c3cc4c(cc3[C@H](OC3OC5COC(C(C)C)OC5C(O)C3O)C3COC(=O)[C@@H]32)OCO4)cc(OC)c1O (stereo partly specified) ; yields the recorded call
inactive

And for "O=C(c1ccccc1)c1ccc(N2C(=O)/C(=C/Cc3ccco3)N=C2c2ccccc2)c(N2C(=O)/C(=C/Cc3ccco3)N=C2c2ccccc2)c1" ?
inactive

* * *

Test system: M14
PROTOCOL: NCI tumour cell line growth inhibition, 48 h
Calls of active or inactive are those of the source. Cut-off read from the data, not from the text of the source: active = GI50 up to about 1.1 µM and inactive = higher.
ATTRIBUTE MEASURED: GI50

Example results:
[[record]]
compound = "COc1ccc(/C=C2\\C[C@H]3[C@@H]4CCC5=C/C(=N/O)CC[C@]5(C)[C@H]4CC[C@]3(C)\\C2=N\\O)cc1OC"
attribute_measured = "GI50"
measured_value = "40.2 µM (inactive)"

[[record]]
compound = "c1ccc2c(c1)[Se]c1ccccc1[Se]2"
attribute_measured = "GI50"
measured_value = "> 100 µM (inactive)"

[[record]]
compound = "O=c1cc(N2CCOCC2)[nH]c(=O)n1-c1cccc(C(F)(F)F)c1"
attribute_measured = "GI50"
measured_value = "> 100 µM (inactive)"


GI50 lookup needed for "O=C(N/N=C1\C(=O)Nc2c(Cl)cc(Cl)cc21)C(=O)Nc1cccc(C(F)(F)F)c1" , thanks.
> 100 µM (inactive)

And for "O=C1COC(c2ccccc2O)=NN1CCCN1CCCC1" ?
> 100 µM (inactive)

And for CCN(CC)CCC1(C(=O)OC)SCCc2ccc(C)cc21 (stereo not given) ?
> 100 µM (inactive)

And for Cc1c2c(n(CCc3ccc(Cl)cc3)c1C)NC(c1ccccc1)C(C#N)S2(=O)=O (stereo not given) ?
27.2 µM (inactive)

And for CC12C3CC4C5CC(C(C53)[C@@H]1NCc1ccccc1)C42 (stereo not given in full) ?
> 100 µM (inactive)

And for "O=C(c1ccc2ccccc2c1)C1(I)S(=O)(=O)OCCOS1(=O)=O" ?
> 100 µM (inactive)

And for O=C1c2c(ccc3c2CCC3)CC1Cc1ccc2c(c1)CCC2 (stereo not given) ?
32.1 µM (inactive)

* * *

System: U-251
PROTOCOL: NCI tumour cell line growth inhibition, 48 h
Active and inactive are the calls of the source. No stated cut-off is given here; in the data, active = GI50 up to about 1.1 µM and inactive = higher.
Respond only with the outcome that fits, drawn from active, inactive

Answered examples (5):
[[record]]
compound = "O=C(NNC(=S)Nc1ccc(Br)cc1)c1cc(-c2ccccc2)nc2ccccc12"
answer_label = "inactive"

[[record]]
compound = "CC(C)(C)OC(=O)[C@@H]1CCC(=S)N1Cc1ccccc1"
answer_label = "inactive"

[[record]]
compound = "CN(CC(=O)O)c1ncc2c(n1)C=CCC2"
answer_label = "inactive"

[[record]]
compound = "CCOP(=O)(OCC)OC1CC(n2cc(C)c(=O)n(C)c2=O)OC1CO[Si](C)(C)C(C)(C)C (configuration not stated)"
answer_label = "inactive"

[[record]]
compound = "NCCCCC(=O)c1cccnc1"
answer_label = "inactive"


// param item: "O=C1Nc2ccccc2/C1=C1/Nc2ccccc2/C1=N/OCCO" ; yields the recorded call
inactive

And for "CN1C(=O)CC(=O)N1/C(=C/c1ccccc1)c1ccccc1" ?
inactive

And for "CCOc1c2ccsc2c(OCC)c2ccsc12" ?
inactive

And for "O=C(CCn1[nH]c(=O)c(Cl)c(Cl)c1=O)NO" ?
inactive

And for "N=C(N)SCCC(=O)CCSC(=N)N" ?
inactive

And for COC12OCCN(CCO)C1=CC(=O)C1(C)N=NC(C)C12 (configuration not stated) ?
inactive

* * *

Test system: SF-268
PROTOCOL: NCI tumour cell line growth inhibition, 48 h
Active and inactive are the calls of the source. Cut-off read from the data, not from the text of the source: active = GI50 up to about 1.1 µM and inactive = higher.
Respond only with the outcome that fits, drawn from active, inactive

// param item: "CN(C)c1nc(N(C)C)nc(N(C)C23CC4CC(CC(C4)C2)C3)n1" ; yields the recorded call
inactive

And for "COC(=O)n1c(CBr)c(Br)c2ccccc21" ?
inactive

And for "CN(C1=NCCO1)c1cccc2ccccc12" ?
inactive

And for CCCCCCCCCCCCCCCCNc1nc(=O)n(C2CC(O)C(COP(=O)(O)OC3CC(n4cc(F)c(=O)[nH]c4=O)OC3CO)O2)cc1F (stereo unspecified) ?
active

And for "O=c1cc(NNc2cccc(Cl)c2)[nH]c(=O)[nH]1" ?
inactive

And for "C=CCc1cccc2cc(C(=O)Nc3ccc(C)cc3)c(=N)oc12" ?
inactive

* * *

Test system: SW-620
PROTOCOL: NCI tumour cell line growth inhibition, 48 h
Active and inactive are the calls of the source. Cut-off read from the data, not from the text of the source: active = GI50 up to about 1.1 µM and inactive = higher.
Respond only with the outcome that fits, drawn from true (1) (active), false (0) (inactive)

Answered examples (3):
[[record]]
molecule = "COc1cc([C@@H]2c3cc4c(cc3[C@@H](NC(=O)c3ccc(N)cc3)C3COC(=O)[C@@H]32)OCO4)cc(OC)c1O (some centres undefined)"
answer_label = "true (1)"

[[record]]
molecule = "Cc1cc(O)c2c(c1O)C(=O)C13C(=C(O)C4C(O)C1C1C(O)C3C(O)=C3C(=O)c5c(O)cc(C)c(O)c5C(=O)C341)C2=O (centres undefined)"
answer_label = "true (1)"

[[record]]
molecule = "CCOC(=O)C(=O)NC12CC3CC(CC(C3)C1)C2"
answer_label = "false (0)"


Here's the next entry for you.
// param item: CCOC1OC(CO)C(O)CC1n1ccc(=O)[nH]c1=O (centres undefined) ; yields the recorded call
false (0)

* * *

System: HOP-18
PROTOCOL: NCI tumour cell line growth inhibition, 48 h
Activity calls are given as the source filed them. No stated cut-off is given here; in the data, active = GI50 up to about 1.1 µM and inactive = higher.
Respond only with the outcome that fits, drawn from active, inactive

// param item: "Cc1nc2sccn2c1C(=O)NNC(N)=S" ; yields the recorded call
inactive

And for C[n+]1ccc(-c2cc[n+](C)cc2)cc1 [PARAQUAT DICHLORIDE] ?
inactive

And for CCC(C)C(=O)O[C@H]1C(=O)O[C@@H]2C[C@H]3C(C)=CC(=O)[C@@H](O)[C@]3(C)[C@H]3[C@@H](O)[C@H](O)[C@@]4(C)OC[C@]32[C@@H]14 (some centres not stated) ?
active

And for "COc1ccc(/C(Cl)=C(\C=O)c2ccc(F)cc2)cc1" ?
inactive

And for COC1OC(COCc2ccc(Cl)cc2)C(OCc2ccc(Cl)cc2)C1O (configuration not stated) ?
inactive

And for "O=c1c(Cl)c(Cl)cnn1CCc1ccncc1" ?
inactive

And for N#CC(C(=O)/C(=N/N)C(C#N)c1ccc(Cl)cc1)c1ccc(Cl)cc1 (configuration not stated) ?
inactive

And for "COc1ccccc1N1C(=O)/C(=C/c2ccc(N(CCC#N)CCC#N)cc2C)N=C1c1cc([N+](=O)[O-])ccc1Cl" ?
inactive

And for C=CCC1(C(=O)OC(C)(C)C)C(OC)=C(C(=O)OC(C)(C)C)C2C1C(C(=O)OC(C)(C)C)=C(OC)C2(CC=C)C(=O)OC(C)(C)C (configuration not stated) ?
inactive

And for "CC(C)C1(O)C(c2ccccc2)=C(c2ccccc2)C(c2ccccc2)=C1c1ccccc1" ?
inactive

And for Cc1cc(NC(=O)C2C3C=CC(O3)C2C(=O)O)no1 (configuration not stated) ?
inactive

And for CN(c1ccccc1)C(c1ccccc1)C(O)c1ccccc1 (configuration not stated) ?
inactive

* * *

System: UO-31
PROTOCOL: NCI tumour cell line growth inhibition, 48 h
Active and inactive are the calls of the source. No stated cut-off is given here; in the data, active = GI50 up to about 1.1 µM and inactive = higher.
Respond only with the outcome that fits, drawn from class 1 (active), class 0 (inactive)

[[record]]
compound = "COC(=O)C(Cc1ccc(N(C)C)cc1)(NC(=O)c1ccccc1)P(=O)(OC)OC (stereo not drawn)"
answer_label = "class 0"


// param item: CC1NC(/C(=C/c2ccccc2O)NC(=O)c2ccccc2)OC1=O (stereo not drawn) ; yields the recorded call
class 0

And for "O=C(NCC(C(=O)OCc1ccccc1)C(=O)OCc1ccccc1)OCc1ccccc1" ?
class 0

And for "O=C(c1ccc2ccccc2c1)C1(I)S(=O)(=O)OCCOS1(=O)=O" ?
class 0

And for CN(C)C(=O)C(F)(F)C(c1ccc(Br)cc1)C1C(=O)N(C)C(=O)N(C)C1=O (stereo not drawn) ?
class 0

And for CC(=O)OCC1OC(Nc2ncc(-c3ccc(C)cc3)s2)C(OC(C)=O)C(OC(C)=O)C1OC(C)=O (stereo not drawn) ?
class 0

* * *

Test system: Malme-3M
PROTOCOL: NCI tumour cell line growth inhibition, 48 h
Active and inactive are the calls of the source. No stated cut-off is given here; in the data, active = GI50 up to about 1.1 µM and inactive = higher.
Respond only with the outcome that fits, drawn from yes for active, no for inactive

// param item: "COc1ccc(/C(Cl)=C(\C=O)c2ccc(F)cc2)cc1" ; yields the recorded call
no

And for "COc1ccc(C(=O)Sc2c(-c3ccccc3)c(=O)n(-c3ccccc3)c(=S)n2-c2ccccc2)cc1" ?
no

And for COc1cc([C@@H]2c3cc4c(cc3[C@H](OC3OC5COC(C(C)C)OC5C(O)C3O)C3COC(=O)[C@@H]32)OCO4)cc(OC)c1O (stereo partly drawn) ?
no

And for CC(C)=CC(=O)C1c2cccc(O)c2C(=O)c2c(O)cc(C)cc21 (stereo not drawn) ?
no

And for "Cc1ccc(C2=Nc3cc(C)c(Cl)cc3S(=O)(=O)NN2)cc1" ?
no

And for "C=CCn1c(-c2ccc(Cl)cc2Cl)cs/c1=N\c1c(C)n(C)n(-c2ccccc2)c1=O" ?
no
